System: U2932 TK216-resistant clone 2
ASSAY_DETAILS: cell proliferation relative to vehicle (% of vehicle); higher = less growth inhibition
CONDITIONS_USED: 500 nM; 72 h
As shown below, each of these compounds has a reported cell proliferation value.
Write the value as a bare number.

See these solved cases before continuing.
# COMPOUND, NUMERIC_READOUT
records = [
    ("COc1ccc(S(=O)(=O)N(CCO)c2ccccc2CN(C)C/C=C/c2ccc(Cl)cc2)cc1 [KN-93 Phosphate]", 90.8),
    ("O=c1[nH]cc(F)c(=O)[nH]1 [Fluorouracil (5-Fluoracil, 5-FU)]", 102),
    ("CCCCCOC(=O)Nc1nc(=O)n([C@@H]2O[C@H](C)[C@@H](O)[C@H]2O)cc1F [Capecitabine]", 105),
    ("CO[C@H]1C[C@@H]2CC[C@@H](C)[C@@](O)(O2)C(=O)C(=O)N2CCCC[C@H]2C(=O)O[C@H]([C@H](C)C[C@@H]2CC[C@@H](OP(C)(C)=O)[C@H](OC)C2)CC(=O)[C@H](C)/C=C(\\C)[C@@H](O)[C@@H](OC)C(=O)[C@H](C)C[C@H](C)/C=C/C=C/C=C/1C [Ridaforolimus (Deforolimus, MK-8669)]", 64.3),
]

# input compound: COc1cc2nccc(Oc3ccc(NC(=O)C4(C(=O)Nc5ccc(F)cc5)CC4)cc3)c2cc1OC ; wanted: its cell proliferation
98

Entry CCc1nc(-c2cccc(C)c2)c(-c2ccnc(NC(=O)c3ccccc3)c2)s1 please
97.7

Entry O=c1[nH]c(=O)n([C@H]2C[C@H](O)[C@@H](CO)O2)cc1F [Floxuridine] please
37.4

Entry Clc1ccc(Nc2nnc(Cc3ccncc3)c3ccccc23)cc1 [Vatalanib (PTK787) 2HCl] please
99.8

Entry CO[C@H]1C[C@@H]2CC[C@@H](C)[C@@](O)(O2)C(=O)C(=O)N2CCCC[C@H]2C(=O)O[C@H]([C@H](C)C[C@@H]2CC[C@@H](OC(=O)C(C)(CO)CO)[C@H](OC)C2)CC(=O)[C@H](C)/C=C(\C)[C@@H](O)[C@@H](OC)C(=O)[C@H](C)C[C@H](C)/C=C/C=C/C=C/1C please
64.8

Entry Oc1cc(O)cc(/C=C/c2ccc(O)c(O)c2)c1 [Piceatannol] please
99.7

Entry COc1cc(OCc2cccc(-c3ccccc3)c2C)cc(OC)c1CN1CCCC[C@H]1C(=O)O [PD-1/PD-L1 inhibitor 1] please
99.6

* * *

As shown below, each of these compounds has a reported cell proliferation value.
Tested on: U2932 TK216-resistant clone 2
ASSAY_DETAILS: cell proliferation relative to vehicle (% of vehicle); higher = less growth inhibition
CONDITIONS_USED: 500 nM; 72 h
Counter-ions that a name gives are not always drawn.

See these solved cases before continuing.
# COMPOUND, cell proliferation
records = [
    ("CO[C@H]1C[C@@H]2CC[C@@H](C)[C@@](O)(O2)C(=O)C(=O)N2CCCC[C@H]2C(=O)O[C@H]([C@H](C)C[C@@H]2CC[C@@H](OCCO)[C@H](OC)C2)CC(=O)[C@H](C)/C=C(\\C)[C@@H](O)[C@@H](OC)C(=O)[C@H](C)C[C@H](C)/C=C/C=C/C=C/1C [Everolimus (RAD001)]", 65.5),
    ("c1cc(-c2cnn3cc(-c4ccc(OCCN5CCCCC5)cc4)cnc23)ccn1 [Dorsomorphin 2HCl]", 98),
    ("COc1cc2c(cc1O)CC[C@@H]1[C@@H]2CC[C@]2(C)[C@@H](O)CC[C@@H]12", 102),
    ("Cc1ccc(Nc2nccc(N(C)c3ccc4c(C)n(C)nc4c3)n2)cc1S(N)(=O)=O [Pazopanib HCl]", 102),
]

# input compound: CC1(C)CNc2cc(NC(=O)c3cccnc3NCc3ccncc3)ccc21 [Motesanib Diphosphate (AMG-706)] ; wanted: its cell proliferation
97.7

Entry COC(=O)c1ccc([C@H]2c3[nH]c4ccccc4c3C[C@H](C(=O)OC)N2C(=O)CCl)cc1 please
-2.9

Hey, just so you know, these numbers are from the supplement of paper PMC13172266.
